Hello, the source for this data is patent US20230159509A1, in case you need it.

Below is a list of entries, each paired with its recorded Emax value.
# experimentalTarget: TRAP1 enzyme (Homo sapiens)
# Construct: 150 nM Trap1 enzyme was incubated with various concentrations of the test compound
# experimentNotes: ADP Glo assay of TRAP1 ATPase activity
# Assay type: biochemical
# protocolConditions: maximal percent activation; read-out: ADP GLO DRC: Mean Emax

Consider the worked cases shown below.
- molecule: "COc1ncc(NC(=O)c2csc(-c3ccccc3)n2)cc1S(=O)(=O)Nc1cc(F)c(C)cc1C#N [compound 2155]"
  resultType: "Emax"
  valueMeasured: "200 to 300%"
- molecule: "CCc1cccc(CC)c1NS(=O)(=O)c1cc(NC(=O)c2csc(-c3ccccc3)n2)cnc1OC [compound 1418]"
  resultType: "Emax"
  valueMeasured: "119 to 159%"
- molecule: "COc1ncc(NC(=O)c2csc(C)n2)cc1S(=O)(=O)Nc1c(C)cccc1C [compound 2501]"
  resultType: "Emax"
  valueMeasured: "160 to 199%"
- molecule: "COc1ncc(NC(=O)c2coc(-c3ccccc3)n2)cc1S(=O)(=O)Nc1ccc(F)cc1C(C)C [compound 2381]"
  resultType: "Emax"
  valueMeasured: "200 to 300%"
- molecule: "COc1ncc(NC(=O)c2cnc3n2CCCC3)cc1S(=O)(=O)Nc1c(C)cccc1C [compound 1404]"
  resultType: "Emax"
  valueMeasured: "> 300%"
- molecule: "COc1ncc(NC(=O)c2cccc(-c3ccnn3C)c2)cc1S(=O)(=O)Nc1c(C)cccc1C [compound 1942]"
  resultType: "Emax"
  valueMeasured: "> 300%"
- molecule: "COc1ncc(NC(=O)c2cc3c(C)nn(C)c3s2)cc1S(=O)(=O)Nc1c(C)cccc1C [compound 1380]"
  resultType: "Emax"
  valueMeasured: "> 300%"
- molecule: "[2H]c1c([2H])c([2H])c(C([2H])([2H])[2H])c(NS(=O)(=O)c2cc(NC(=S)c3coc(-c4ccccc4)n3)cnc2OC)c1[2H] [compound 2493]"
  resultType: "Emax"
  valueMeasured: "160 to 199%"

Given COc1ncc(NC(=O)c2csc(-c3ccccc3)n2)cc1S(=O)(=O)Nc1ccc2nn[nH]c2c1 [compound 1926] , state its recorded Emax.
119 to 159%

Given COc1ncc(NC(=O)c2nn(C)c3c2CCCC3)cc1S(=O)(=O)Nc1c(C)cccc1C [compound 1424] , state its recorded Emax.
200 to 300%

* * *

# experimentalTarget: TRAP1 enzyme (Homo sapiens, UniProt Q12931)
# Construct: 150 nM Trap1 enzyme was incubated with various concentrations of the test compound
# Sequence (Q12931 60-704): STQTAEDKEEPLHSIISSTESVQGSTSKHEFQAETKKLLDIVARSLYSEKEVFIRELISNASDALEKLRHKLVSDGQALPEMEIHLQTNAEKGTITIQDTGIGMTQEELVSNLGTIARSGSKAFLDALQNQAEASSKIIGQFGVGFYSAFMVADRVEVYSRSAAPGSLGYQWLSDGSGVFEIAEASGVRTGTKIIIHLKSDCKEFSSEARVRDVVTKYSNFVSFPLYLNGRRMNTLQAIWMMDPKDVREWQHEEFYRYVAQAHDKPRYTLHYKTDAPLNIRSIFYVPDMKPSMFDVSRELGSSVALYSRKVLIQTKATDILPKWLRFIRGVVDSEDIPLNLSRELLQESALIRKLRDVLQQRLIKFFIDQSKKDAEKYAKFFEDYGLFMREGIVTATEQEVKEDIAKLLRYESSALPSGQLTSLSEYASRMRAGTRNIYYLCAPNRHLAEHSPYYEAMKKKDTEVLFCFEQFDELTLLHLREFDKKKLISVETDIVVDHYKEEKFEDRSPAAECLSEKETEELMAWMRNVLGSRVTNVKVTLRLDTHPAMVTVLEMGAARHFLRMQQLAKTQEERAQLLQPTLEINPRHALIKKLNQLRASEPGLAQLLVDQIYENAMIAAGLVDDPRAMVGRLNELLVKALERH
# experimentNotes: ADP Glo assay of TRAP1 ATPase activity
# Type: biochemical
# protocolConditions: concentration for half maximal activation; read-out: ADP GLO DRC: GeoMean EC50
pEC50: −log10 of the molar value.
resultType: pEC50

- molecule: "COc1ncc(NC(=O)c2csc(-c3ccccc3)n2)cc1S(=O)(=O)Nc1cc(C(F)(F)F)ncc1C"
  resultType: "pEC50"
  valueMeasured: "4.00 to 4.70"
- molecule: "COc1ncc(NC(=O)c2csc(-c3ccccc3)n2)cc1S(=O)(=O)Nc1ccnc2cccnc12"
  resultType: "pEC50"
  valueMeasured: "4.00 to 4.70"
- molecule: "COc1ncc(NC(=O)c2csc(-c3cc(F)c(F)c(F)c3)n2)cc1S(=O)(=O)Nc1cc(C)n(C(C)C)n1"
  resultType: "pEC50"
  valueMeasured: "4.70 to 5.00"
- molecule: "COc1ncc(NC(=O)c2ncc(-c3ccccc3)o2)cc1S(=O)(=O)Nc1c(C)cccc1C"
  resultType: "pEC50"
  valueMeasured: "> 5.00"
- molecule: "COc1ncc(NC(=O)c2c[nH]c(C(F)(F)F)n2)cc1S(=O)(=O)Nc1c(C)cccc1C"
  resultType: "pEC50"
  valueMeasured: "4.00 to 4.70"
- molecule: "COc1ncc(NC(=O)c2csc(-c3ccccc3)n2)cc1S(=O)(=O)N(CC(O)CO)c1ccc(Cl)cc1 (stereo not drawn)"
  resultType: "pEC50"
  valueMeasured: "> 5.00"

Can you look up pEC50 on TRAP1 enzyme (Homo sapiens, UniProt Q12931) for COc1ncc(NC(=O)c2csc(-c3ccccc3)n2)cc1S(=O)(=O)Nc1c(C)cnn1C ?
4.00 to 4.70

Can you look up pEC50 on TRAP1 enzyme (Homo sapiens, UniProt Q12931) for CCc1cccc2sc(NS(=O)(=O)c3cc(NC(=O)c4ncc(-c5ccccc5)o4)cnc3OC)nc12 ?
4.00 to 4.70

Can you look up pEC50 on TRAP1 enzyme (Homo sapiens, UniProt Q12931) for [2H]c1c([2H])c([2H])c(-c2nc(C(=O)Nc3cnc(OC)c(S(=O)(=O)Nc4c(C)cccc4C)c3)cs2)c([2H])c1[2H] ?
> 5.00

* * *

# experimentalTarget: TRAP1 enzyme (Homo sapiens)
# Construct: 150 nM Trap1 enzyme was incubated with various concentrations of the test compound
# experimentNotes: ADP Glo assay of TRAP1 ATPase activity
# Assay type: biochemical
# protocolConditions: concentration for half maximal activation; read-out: ADP GLO DRC: GeoMean EC50
resultType: EC50

Consider the worked cases shown below.
- smilesRepresentation: "COc1ncc(NC(=O)c2csc(-c3ccccc3)n2)cc1S(=O)(=O)Nc1ccc(Cl)cn1"
  EC50: "10 to 20 µM"
- smilesRepresentation: "COc1ncc(NC(=O)c2nn(C)c3c2CCCC3)cc1S(=O)(=O)Nc1c(C)cccc1C"
  EC50: "10 to 20 µM"
- smilesRepresentation: "COc1ncc(NC(=O)c2ccc(Cn3cc(Cl)cn3)cc2)cc1S(=O)(=O)Nc1c(C)cccc1C"
  EC50: "10 to 20 µM"
- smilesRepresentation: "COc1ncc(NC(=O)c2ncc(-c3ccccc3)o2)cc1S(=O)(=O)Nc1ccc(F)c(F)c1C"
  EC50: "< 10 µM"
- smilesRepresentation: "COc1ncc(NC(=O)c2ncc(-c3ccccc3)o2)cc1S(=O)(=O)Nc1cccc2cnc(C)cc12"
  EC50: "10 to 20 µM"
- smilesRepresentation: "COc1ncc(NC(=O)c2csc(-c3ccccc3)n2)cc1S(=O)(=O)Nc1cc(F)c(C)cc1C#N"
  EC50: "10 to 20 µM"

Given COc1ncc(NC(=O)c2csc(-c3ccccc3)n2)cc1S(=O)(=O)Nc1c(C)cccc1P(C)(C)=O , state its recorded EC50.
20 to 100 µM

Given COc1ncc(NC(=O)c2nn(C)c3ccccc23)cc1S(=O)(=O)Nc1c(C)cccc1C , state its recorded EC50.
< 10 µM

Given CCc1cccc(C)c1NS(=O)(=O)c1cc(NC(=O)c2csc(-c3ccccc3)n2)cnc1OC , state its recorded EC50.
< 10 µM

Given COc1ncc(NC(=O)c2coc(-c3ccccc3)n2)cc1S(=O)(=O)Nc1ccc(F)c(F)c1C , state its recorded EC50.
10 to 20 µM

Given COc1ncc(NC(=O)c2csc3c2CNCC3)cc1S(=O)(=O)Nc1c(C)cccc1C , state its recorded EC50.
20 to 100 µM

Given COc1ncc(NC(=O)c2csc(-c3ccccc3)n2)cc1S(=O)(=O)Nc1cc(C)cnc1C , state its recorded EC50.
20 to 100 µM

Given COc1ncc(NC(=O)c2ncc(-c3ccccc3)o2)cc1S(=O)(=O)Nc1cc(C(F)(F)F)n[nH]1 , state its recorded EC50.
20 to 100 µM

Given COc1ncc(NC(=O)c2coc(-c3ccccc3)n2)cc1S(=O)(=O)Nc1c(C)cccc1Cl , state its recorded EC50.
< 10 µM

* * *

# experimentalTarget: TRAP1 enzyme (Homo sapiens)
# Construct: 150 nM Trap1 enzyme was incubated with various concentrations of the test compound
# experimentNotes: ADP Glo assay of TRAP1 ATPase activity
# Type: biochemical
# protocolConditions: maximal percent activation; read-out: ADP GLO DRC: Mean Emax
resultType: Emax

Given COc1ncc(NC(=O)c2csc(-c3ccccc3)n2)cc1S(=O)(=O)Nc1ccnc(C(F)(F)F)c1 [compound 1895] , state its recorded Emax.
160 to 199%

Given COc1ncc(NC(=O)c2coc(-c3ccccc3)n2)cc1S(=O)(=O)Nc1c(C)cccc1Cl [compound 1941] , state its recorded Emax.
160 to 199%

Given COCCOc1cc(NS(=O)(=O)c2cc(NC(=O)c3csc(-c4ccccc4)n3)cnc2OC)ccn1 [compound 1760] , state its recorded Emax.
119 to 159%

Given COc1ncc(NC(=O)c2coc(-c3ccccc3)n2)cc1S(=O)(=O)Nc1c(Cl)cccc1C(F)(F)F [compound 1962] , state its recorded Emax.
160 to 199%

Given COc1ncc(NC(=O)c2csc(-c3ccccc3)n2)cc1S(=O)(=O)Nc1ccc(Cl)cn1 [compound 1385] , state its recorded Emax.
160 to 199%
